Reference source for all entries: paper PMC3905896

- ASSAY SYSTEM: PtxS (assayed together with PtxR at Pgad) (Pseudomonas aeruginosa)
- Sequence (G3XD97 whole entry): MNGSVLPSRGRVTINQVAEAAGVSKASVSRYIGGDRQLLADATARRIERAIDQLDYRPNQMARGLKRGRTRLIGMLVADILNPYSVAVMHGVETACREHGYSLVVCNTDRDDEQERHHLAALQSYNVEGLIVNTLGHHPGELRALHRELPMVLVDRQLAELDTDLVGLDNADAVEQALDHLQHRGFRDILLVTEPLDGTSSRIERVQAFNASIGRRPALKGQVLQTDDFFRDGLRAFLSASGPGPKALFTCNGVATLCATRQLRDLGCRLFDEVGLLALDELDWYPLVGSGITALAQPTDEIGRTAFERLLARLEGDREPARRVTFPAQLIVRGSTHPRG
REPORTED METRIC: EC50 (µM)

INSERT INTO results (molecule, unit_annotation, observed) VALUES
  ('O=C(O)C(=O)[C@@H](O)[C@H](O)[C@H](O)CO [2-ketogluconate]', 'µM', 78);
